Ref: patent US10526316B2

molecule	melting point, °C
OCCNCc1cc(C2CCCN2c2cc(F)cc(F)c2)c2nc(N3CCOCC3)cnc2c1 (stereo not drawn)	140
CC(Nc1cc(F)cc(F)c1)c1cc(CN2CC3(C2)CS(=O)(=O)C3)cc2ncc(N3CCOCC3)nc12 (single isomer, unassigned) [Compound 160]	229
CC(Nc1cc(C(=O)N(C)C)cc2ncc(N3CCOCC3)nc12)c1cc(F)cc(F)c1 (stereo not drawn)	80
CN[C@@H]1CCN(C(=O)c2cc(C(C)Nc3ccc(F)c(F)c3)c3nc(N4CCOCC4)cnc3c2)C1 (single isomer, unassigned) [Compound 371b]	107
CC1CN(C(=O)c2cc(C3CCCN3c3cc(F)cc(F)c3)c3nc(N4CCOCC4)cnc3c2)CC(C)N1 (stereo not drawn)	80
[2H]C([2H])(O)C([2H])([2H])NC(=O)c1cc(C(C)Nc2cccc(F)c2)c2nc(N3CCOCC3)cnc2c1 (single isomer, unassigned) [Compound 408b]	123
CC(Nc1ccc(F)c(F)c1)c1cc(C(=O)N2CCN3CCC[C@H]3C2)cc2ncc(N3CCOCC3)nc12 (stereo partly drawn) [Compound 287]	80
CC(Nc1cccc(F)c1)c1cc(C(=O)NCC(=O)O)cc2ncc(N3CCOCC3)nc12 (single isomer, unassigned) [Compound 393b]	196
CNCCNC(=O)c1cc(C2CCCN2c2cc(F)cc(F)c2)c2nc(N3CCOCC3)cnc2c1 (stereo not drawn) [Compound 72]	80
COC(=O)c1cc(C(C)N(C)c2cccc(F)c2)c2nc(N3CCOCC3)cnc2c1 (stereo not drawn)	146
CC(Nc1cc(F)cc(F)c1)c1cc(Br)cc2ncc(N3CCOCC3)nc12 (stereo not drawn)	80
CN(C)C(=O)c1cc(C2CCCN2c2cccc(F)c2)c2nc(N3CCOCC3)cnc2c1 (stereo not drawn)	80
CC(Oc1cc(F)cc(F)c1)c1cc(C(=O)NCCO)cc2ncc(N3CCOCC3)nc12 (single isomer, unassigned) [Compound 199]	140
CC(Nc1cccc(F)c1)c1cc(C(=O)N2CC[C@@H](O)C2)cc2ncc(N3CCOCC3)nc12 (single isomer, unassigned) [Compound 321a]	118
Cc1cc(C)cc(NC(C)c2cc(C(=O)N3CCOCC3)cc3ncc(N4CCOCC4)nc23)c1 (stereo not drawn)	80
CC(Nc1cc(F)cc(F)c1)c1cc(C(=O)NS(N)(=O)=O)cc2ncc(N3CCOCC3)nc12 (single isomer, unassigned) [Compound 243b]	200
CC(Oc1ccc(F)c(F)c1)c1cc(C(=O)N(C)CCN(C)C)cc2ncc(N3CCOCC3)nc12 (stereo not drawn)	80
CC(C)NCCNC(=O)c1cc(C(C)Nc2cccc(F)c2)c2nc(N3CCOCC3)cnc2c1 (single isomer, unassigned) [Compound 227]	80
OC(CN1CCC1)c1cc(C2CCCN2c2cc(F)cc(F)c2)c2nc(N3CCOCC3)cnc2c1 (single isomer, unassigned)	80
CC(Nc1cc(F)cc(F)c1)c1cc(C(=O)NC[C@@H](C)O)cc2ncc(N3CCOCC3)nc12 (single isomer, unassigned)	70
CC(Nc1cccc(F)c1)c1cc(C(=O)N2CCOCC2)cc2ncc(N3CCOCC3)nc12 (stereo not drawn)	80
CC(Nc1cc(F)cc(F)c1)c1cc(C(=O)NCCO)cc2ncc(N3CCOCC3)nc12 (single isomer, unassigned)	80
CC(Nc1cc(F)cc(F)c1)c1cc(CN2CC3(C2)CS(=O)(=O)C3)cc2ncc(N3CCOCC3)nc12 (single isomer, unassigned) [Compound 161]	228
CC(Oc1cccc(F)c1)c1cc(C(=O)N2CCC[C@H]2CO)cc2ncc(N3CCOCC3)nc12 (single isomer, unassigned) [Compound 87]	74
CC(C)NCCNC(=O)c1cc(C(C)Nc2cc(F)cc(F)c2)c2nc(N3CCOCC3)cnc2c1 (single isomer, unassigned) [Compound 211]	206
NC1CCN(C(=O)c2cc(C3CCCN3c3cc(F)cc(F)c3)c3nc(N4CCOCC4)cnc3c2)CC1 (stereo not drawn)	80
